Cited source for all entries: PubChem BioAssay (NCI)

A collection of compounds and their measured TGI
system: A498 renal; experiment: NCI tumour cell line growth inhibition, 48 h

Solved cases (10 shown):
CC(=O)Nn1c(=S)[nH]c2ccccc21
> 100 µM
COc1cccc(C2SC(N)=Nc3c2c(C)nn3C(=O)c2ccccc2O)c1 (stereo not given)
> 10 µM
CC1=C2C(=C[C@@](C)(CO)[C@@H]2O)C(=O)[C@](C)(O)C12CC2
0.0288 µM
O=C1CCCCN1c1ccccc1C#C/C=C\C#Cc1ccccc1C(F)(F)F
28.4 µM
COc1cc(-c2ccc3cc(OC)c(OC)c(OC)c3c2)cc(OC)c1OC
91.8 µM
N[C@@H]1CCCC[C@@H]1N.O=P([O-])([O-])CN(CCN(CP(=O)([O-])[O-])CP(=O)([O-])[O-])CP(=O)([O-])[O-].[Pt+2]
> 25 µM
O=[N+]([O-])c1cc(C=NC23CC4CC(CC(C4)C2)C3)ccc1Cl
> 100 µM
Nc1ccccc1SC(CC(=O)c1ccccc1)c1cccc([N+](=O)[O-])c1 (stereo not given)
30.9 µM
O=S(=O)(c1ccccc1)N1CCN(S(=O)(=O)c2ccccc2)c2ccccc21
> 100 µM
CC(C)=CCC[C@@H](C)c1c(O)c(O)c(C)c2nccnc12
> 86.1 µM

Form field: reported TGI of `COc1ccc(-n2c(C)nc3ccc(NC(=S)Nc4ccccc4)cc3c2=O)cc1`
> 100 µM

Form field: reported TGI of C[C@]12CCC3C4=C(CCC3C1CCC2=O)C(=O)[C@H]1O[C@H]1C4=O (stereo not given in full)
31.1 µM

Form field: reported TGI of `O=C(N/N=C/c1ccc(Cl)cc1)c1c(Cl)c(Cl)c(Cl)c(Cl)c1-c1nc2ccccc2[nH]1`
> 100 µM

Form field: reported TGI of `CCOC(=O)Nc1sc2c(c1C#N)CCCC2`
> 100 µM

Form field: reported TGI of `Nc1cc(NN=C(c2ccc(O)cc2)c2ccc(O)cc2)c([N+](=O)[O-])cc1[N+](=O)[O-]`
3.55 µM

Form field: reported TGI of `c1ccc(Sc2ncnc3ccccc23)cc1`
39.2 µM

Form field: reported TGI of `CC(=O)OCCOCNC(=S)N/N=C(\C)c1cnccn1`
> 100 µM

Form field: reported TGI of `CC(=O)NNc1nc(C)c(C(=O)/C=C/c2ccc(NC(C)=O)cc2)s1`
> 100 µM

Form field: reported TGI of CCc1c(OC(C)=O)c2c(NC3OCC(OC(C)=O)C(OC(C)=O)C3OC(C)=O)nc(SC)nc2oc1=O (stereo not given)
> 100 µM

Form field: reported TGI of `CCC(=C/[C@H](C)C/C=C/C(C)=C/[C@@H](C)C(=O)[C@@H](C)[C@H](O)[C@@H](C)CC)/C=C/[C@H]1OC(=O)C=C[C@@H]1C`
< 0.01 µM

###

test system: 786-0 renal; assay: NCI tumour cell line growth inhibition, 48 h
QUANTITY KIND: TGI

Solved cases (2 shown):
COc1ccc(-n2c(C)nc3ccc(NC(=S)Nc4ccccc4)cc3c2=O)cc1
> 100 µM
CN(C)CC1CC/C(=C\c2ccc(O)cc2)C1=O (stereo unspecified)
4.91 µM

Form field: reported TGI of `CC(=O)c1c2c(c3ccccc3c1O)O[C@@H]1OCC[C@H]21`
> 100 µM

###

system: COLO 205 colon; experiment: NCI tumour cell line growth inhibition, 48 h
A collection of molecules and their measured TGI

Form field: TGI recorded for `O=C(N/N=C/c1ccc(Cl)cc1)c1c(Cl)c(Cl)c(Cl)c(Cl)c1-c1nc2ccccc2[nH]1` with COLO 205 colon (enter value)
> 100 µM

###

tested on: SK-MEL-5 melanoma; experiment: NCI tumour cell line growth inhibition, 48 h
A collection of molecules and their measured TGI

Solved cases (3 shown):
O=[N+]([O-])c1cc(C=NC23CC4CC(CC(C4)C2)C3)ccc1Cl
55.4 µM
O=C(/C=C/c1ccc(O)cc1)c1ccc(O)cc1
44.2 µM
COc1cc(/C(C#N)=C/c2nc3c(N4CCOCC4)nc(Cl)nc3n2C)cc(OC)c1OC
0.0268 µM

Form field: reported TGI of `O=C(N/N=C/c1ccc(Cl)cc1)c1c(Cl)c(Cl)c(Cl)c(Cl)c1-c1nc2ccccc2[nH]1`
> 100 µM

Form field: reported TGI of `COc1ccc(C)cc1-c1cc(Sc2ccccc2)c(-c2cc(C)ccc2OC)o1`
> 31.6 µM

Form field: reported TGI of `Nc1c(S(=O)(=O)O)cc2cc(S(=O)(=O)O)ccc2c1N=Nc1ccc(-c2ccc(N=Nc3c(N)c(S(=O)(=O)O)cc4cc(S(=O)(=O)O)ccc34)c(S(=O)(=O)O)c2)cc1`
> 100 µM

Form field: reported TGI of `COc1cccc(-c2nc(-c3ccc(NC(=O)OC(C)C)cc3)[nH]c2-c2ccnc(Br)c2)c1`
3.65 µM

Form field: reported TGI of `COC(=O)c1c(C)nc2c1cc(O)c1[nH]c(C)c(C)nc12`
> 100 µM

Form field: reported TGI of `Nc1nc(-c2ccccc2)nc2oc(-c3cccs3)nc12`
> 100 µM

###

A collection of compounds and their measured TGI
tested on: HS 578T breast; experiment: NCI tumour cell line growth inhibition, 48 h

COc1ncc(/C=C2\OC(=O)c3ccccc32)c(OC)n1
> 100 µM

Form field: reported TGI of CCOP(=O)(OCC)C(F)(F)c1ccc(CC(NC(=O)OC(C)(C)C)C(=O)O)cc1 (stereo unspecified)
> 10 µM

Form field: reported TGI of `O=C1CN(c2cccc(Cl)c2)C(=O)CN1CCN1CC(=O)N(c2cccc(Cl)c2)CC1=O`
> 100 µM

Form field: reported TGI of `O=C(O)c1ccc2c(c1C(=O)O)C(=O)OC2(c1ccc(O)cc1)c1ccc(O)cc1`
> 100 µM

Form field: reported TGI of `O=C(CCCSc1nc(-c2ccccc2)cc(-c2ccccc2)n1)NO`
27 µM

###

system: NCI-H23 lung; test: NCI tumour cell line growth inhibition, 48 h
A collection of compounds and their measured TGI

Solved cases (4 shown):
C=CC1(CC/C(=C\[N+](=O)[O-])c2ccc(OC)c(OC)c2)OCC(C)(C)CO1
37 µM
COP(=O)(OC)C1=c2c(C)noc2=C2C=COC2C1=O (configuration not stated)
> 100 µM
S=c1sc2c(n1-c1ccccc1)NC=NC2S (configuration not stated)
> 100 µM
O=C(Cc1ccc(O)c(O)c1)NCc1c[nH]c2ccccc12
> 100 µM

Form field: reported TGI of CC(=O)CC(OC(C)=O)C1=CCC2C(CC1C)OC(=O)C2C (configuration not stated)
> 100 µM

Form field: reported TGI of `CCN(CC)C(=S)N/N=C/c1cc([N+](=O)[O-])ccc1O`
28.9 µM

Form field: reported TGI of `COc1ccc(CCN=C2NC(=O)/C(=C/c3ccc4ncccc4c3)S2)cc1`
> 25 µM

Form field: reported TGI of `N#C/C(=C\c1cccc(Cl)c1Cl)c1ccccc1`
> 72.9 µM

Form field: reported TGI of `Nc1ccc(C2=NNC(=O)Cc3cc4c(cc32)OCCO4)cc1Cl`
> 50 µM

Form field: reported TGI of `C/C(CCn1[nH]c(=O)ccc1=O)=N\NC(=O)C(=O)NN`
> 100 µM

Form field: reported TGI of Cc1cccc(C)c1NC(=O)CCCC(=O)C1/C(=N/NC(=O)CC#N)CCC/C1=N\NC(=O)CC#N (configuration not stated)
> 100 µM

Form field: reported TGI of `COC(=O)C(CCCN1C(=O)c2ccccc2C1=O)C(=O)OC`
> 100 µM

###

test system: HCC-2998 colon; assay: NCI tumour cell line growth inhibition, 48 h
A collection of compounds and their measured TGI

Solved cases (5 shown):
N=c1nnc2ccc(Cl)cc2n1O
> 100 µM
CN(C)CCNS(=O)(=O)c1ccc(N)cc1
> 100 µM
NC1(c2cc3ccccc3s2)CCCC1
46.1 µM
COc1cccc(C2SC(N)=Nc3c2c(C)nn3C(=O)c2ccccc2O)c1 (stereo not given)
> 10 µM
CCCCCC[C@@H]1CCC2C(CO)[C@@H](O)CC[C@@H]2C1 (stereo not given in full)
37 µM

Here is another compound to look at.
Form field: TGI recorded for `O=C(Nc1ccccc1-c1nn(C(=S)Nc2ccccc2)c(=S)n(C(=S)Nc2ccccc2)c1=O)C(F)(F)F` with HCC-2998 colon (enter value)
> 72.5 µM

###

test system: SR leukemia; experiment: NCI tumour cell line growth inhibition, 48 h
QUANTITY KIND: TGI

Solved cases (6 shown):
Nc1ccc(C2=NNC(=O)Cc3cc4c(cc32)OCCO4)cc1Cl
> 50 µM
COC(=O)C1CC(C=[N+](C)C)=C(SC)N1C(=O)OCc1ccccc1 (stereo not given)
> 100 µM
Cn1ccc2c3c(Oc4ccc(NC(N)=O)cc4)ccnc3ccc21
> 100 µM
CCOC(=O)C1=C(C(=O)OCC)C2c3ccccc3C=CN2C(C(=O)OCC)=C(SC)S1 (stereo not given)
> 100 µM
COC(=O)CC(c1ccccc1)C1(c2ccccc2)SCCS1 (stereo not given)
> 290 µM
COc1nncc2[nH]c(-c3ccccc3)cc12
> 100 µM

Form field: reported TGI of CC(=O)CC(OC(C)=O)C1=CCC2C(CC1C)OC(=O)C2C (stereo not given)
> 100 µM

Form field: reported TGI of `O=[N+]([O-])c1ccc2[nH]nc(OCc3ccccc3Cl)c2c1`
> 100 µM
